The sequences listed here are annotated with their recombinant UMI read abundance (log10).
# ASSAY_SUMMARY: recombinant UMI read abundance after kanamycin selection (control-corrected) (log10(CPM+1)); higher = more efficient recombination; extreme values may be limits of the assay; sequences stand for … in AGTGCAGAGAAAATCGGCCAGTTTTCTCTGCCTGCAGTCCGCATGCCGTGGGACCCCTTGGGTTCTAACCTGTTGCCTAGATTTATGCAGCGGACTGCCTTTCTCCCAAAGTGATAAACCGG…AGGTTGGTTTCACT; site = the 11-nt donor;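 note: IS621 bridge recombinase in Escherichia coli cells against a fixed T5 target plasmid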
// no unit, no text: just the number

Task item: Could you share which recombinant UMI read abundance (log10) value was measured for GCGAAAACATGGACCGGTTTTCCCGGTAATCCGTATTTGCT (site GCGAAGACTAG) ?
Reply: 0

More entries:
Task item: Could you share which recombinant UMI read abundance (log10) value was measured for TACTCCTCATGGACCGGTTTTCCCGGTAATCCGTATTTGGG (site TACTCCTCTCC) ?
Reply: 0.0269

These entries and their values trace back to the supplement of paper PMC11208160.
